Format: in vivo
Conditions: human, plasma, po, 0.5 mg, tmax, single 0.5 mg oral dose, adults with HIV, background elvitegravir/cobicistat/emtricitabine/tenofovir disoproxil (STRIBILD), median (range), n = 8
Assay endpoint: Tmax (h)
Give just the number in h; leave the unit off.

input: Look at this compound and give its reported Tmax. `COC(=O)N(C)c1c(N)nc(-c2nn(Cc3ccccc3F)c3ncccc23)nc1N`
output: 1.03

* * *

Assay type: in vivo
Conditions: human, plasma, po, 0.5 mg, tmax, single 0.5 mg oral dose, adults with HIV, background emtricitabine/rilpivirine/tenofovir disoproxil (COMPLERA), median (range), n = 8
Assay endpoint: Tmax (h)
Give just the number in h; leave the unit off.

input: Look at this compound and give its reported Tmax. `COC(=O)N(C)c1c(N)nc(-c2nn(Cc3ccccc3F)c3ncccc23)nc1N`
output: 1.03

* * *

Assay type: in vivo
Conditions: human, plasma, oral, 0.5 mg, median tmax, range across the five background antiretroviral groups, single 0.5 mg dose, adults with HIV
Assay endpoint: Tmax

input: Look at this compound and give its reported Tmax. `COC(=O)N(C)c1c(N)nc(-c2nn(Cc3ccccc3F)c3ncccc23)nc1N`
output: 1 to 1.27 h

* * *

Format: in vivo
Conditions: human, plasma, po, 0.5 mg, tmax, single 0.5 mg oral dose, adults with HIV, background efavirenz/emtricitabine/tenofovir disoproxil (ATRIPLA), median (range), n = 8
Assay endpoint: Tmax
In your response, the unit should come after the numeric value.

input: Look at this molecule and give its reported Tmax. `COC(=O)N(C)c1c(N)nc(-c2nn(Cc3ccccc3F)c3ncccc23)nc1N`
output: 1 h

* * *

Format: in vivo
Details: human, plasma, oral, 0.5 mg
Assay endpoint: Cmax

input: Look at this molecule and give its reported Cmax. `COC(=O)N(C)c1c(N)nc(-c2nn(Cc3ccccc3F)c3ncccc23)nc1N`
output: 14.2 to 20.4 ng/mL

* * *

Assay type: in vivo
Settings: human, plasma, po, 0.5 mg, tmax, single 0.5 mg oral dose, adults with HIV, background ritonavir-boosted triple regimen, median (range), n = 8
Assay endpoint: Tmax (h)
Give just the number in h; leave the unit off.

input: Look at this molecule and give its reported Tmax. `COC(=O)N(C)c1c(N)nc(-c2nn(Cc3ccccc3F)c3ncccc23)nc1N`
output: 1.03

* * *

Assay type: in vivo
Details: human, plasma, po, 0.5 mg, tmax, single 0.5 mg oral dose, adults with HIV, background abacavir/dolutegravir/lamivudine (TRIUMEQ), median (range), n = 8
Assay endpoint: Tmax (h)
Give just the number in h; leave the unit off.

input: Look at this compound and give its reported Tmax. `COC(=O)N(C)c1c(N)nc(-c2nn(Cc3ccccc3F)c3ncccc23)nc1N`
output: 1.27

Sourced from paper PMC6540510
